- System: NCI-H460
- procedure details: NCI tumour cell line growth inhibition, 48 h
Activity calls are given as the source filed them. Cut-off read from the data, not from the text of the source: active = GI50 up to about 1.1 µM and inactive = higher.
Reply using exactly one outcome from Y = active, N = inactive

Just curious, what result did `COc1ccc2c(c1)c(=O)c1c(NCCCN(C)CCCNc3ccc4c(=O)n(CCN(C)C)c(=O)n5c6ccc(OC)cc6c(=O)c3c45)ccc3c(=O)n(CCN(C)C)c(=O)n2c31` get here?
Y

Record lookup: outcome of this test for C=C1C(C2(C)C(OC(C)=O)CC(=O)OC(C)(COC(C)=O)C2CC(=O)OC)C(OC=O)C(OC(=O)C(O)C(C)CC)C2(C)C(c3ccoc3)CC(=O)C12O (stereo not drawn) ?
N

Write down the call the test reported for this compound. Item: `COC(=O)c1cc(/C=C\c2cc(OC)ccc2OC)ccc1OC`
N

Query: recorded result category for `CC1(C)OCC2(CO1)CSCCCSCC1(COC(C)(C)OC1)CSCCCSC2` in this test
N

Assay result, entry C=C1C2CC(OC(C)=O)C3(C)C(c4ccoc4)OC(=O)[C@@H](O)[C@]13OC1C[C@H](OC(C)=O)C(C)(C)[C@H](CC(=O)OC)[C@]12C (stereo partly drawn) — outcome?
N

I'd appreciate the recorded outcome for `CC1=CC(=O)/C(=C/NC(=S)C(N)=S)C(=O)O1` from this test.
N

Identify the outcome logged in this assay for the compound shown: `CCOCC(=O)N(C)c1cccc2c3c(n(C)c12)CCCCC3`
N

Can you look up the reported call for `Cn1nnc2c3c(N(CCO)CCO)ccnc3ccc21` for me?
N

###

- Test system: K562
- procedure details: NCI tumour cell line growth inhibition, 48 h
Active and inactive are the calls of the source. Rule as the data show it: active = GI50 up to about 1.1 µM and inactive = higher.
measure name: GI50

Record `NNS(=O)(=O)c1cc(C(=O)O)cc(C(=O)O)c1` . Reported GI50: > 100 µM (inactive)

// `[N-]=[N+]=Nc1c(Cl)c(Cl)nc2ccccc12` : GI50 value = 81.3 µM (inactive)

The recorded GI50 for entry `CN1CCN(C(=S)N(C(=O)c2ccc(Cl)cc2)C2CCCCC2)CC1` equals 51.3 µM (inactive)

Form: molecule = `CCC1([N+](=O)[O-])CN(N=O)C1` ; GI50 = > 100 µM (inactive)

Entry `O=c1c2ccccc2c(=O)c2c1c1[nH]c3ccccc3c1c1c(=O)c3ccccc3c(=O)c21` — recorded GI50 = > 100 µM (inactive)

`NCCCCCCn1c(-c2ccc(Br)cc2)cs/c1=N\c1ccccc1` has a reported GI50 of 2.01 µM (inactive)

###

- System: MDA-N
- procedure details: NCI tumour cell line growth inhibition, 48 h
Active and inactive are the calls of the source. Rule as the data show it: active = GI50 up to about 1.1 µM and inactive = higher.
Please reply with one of these outcomes: active, inactive

Called result for `Cc1c/c(=N\c2ccc3c(c2)c(N)cc(C)[n+]3C)nc(N)n1C`
inactive

Hi, do you know how `CC(=O)O[C@H]1C[C@H](O[C@H]2[C@@H](O)C[C@H](O[C@H]3[C@@H](O)C[C@H](O[C@H]4CC[C@@]5(C)[C@H](CC[C@@H]6[C@@H]5CC[C@]5(O)[C@@H](C7=CC(=O)OC7)CC[C@]65O)C4)O[C@@H]3C)O[C@@H]2C)O[C@H](C)[C@H]1O[C@@H]1O[C@H](CO)[C@@H](O)[C@H](O)[C@H]1O` came out in this test?
active

I'd appreciate the recorded outcome for CCOC(=O)C1C(=O)CC(O)(OCC)C(C(=O)OCC)C1c1ccc(OC)cc1 (stereo not drawn) from this test.
inactive

Assay outcome for O=c1[nH]c(=O)n(C2CC(O)C(CO)O2)cc1I (stereo not drawn) : what was it?
inactive

For `O=C(Cc1ccc(Cl)c(Cl)c1)NCC1(N2CCCCC2)CCCCC1` , which call appears in the assay record?
inactive

State the result this test recorded for `Cc1nc(O)nc2nc3ccc(Cl)cc3c(N(CCO)CCO)c12` .
inactive

Given `COC(=O)/C(=C\c1ccco1)P(=O)(OC)OC` , state the outcome it received in this test.
inactive

Recorded test call requested for `C(#C[C@@]12CCC[C@@H]1N(Cc1ccccc1)CO2)c1ccc2c(c1)OCO2`
inactive
